- System: SK-MEL-28
- assay-protocol: NCI tumour cell line growth inhibition, 48 h
Where a name gives a salt, the structure may show the parent alone. Calls of active or inactive are those of the source. No stated cut-off is given here; in the data, active = GI50 up to about 1.1 µM and inactive = higher.
API: response.call in class 1 for active, class 0 for inactive

Previously resolved entries follow.
Asked: What did the test return for `COc1cccc(-c2nc(O)c3ccccc3n2)c1` ?
Given back: class 0

Asked: What did the test return for COc1cc(OC)c(CSCC(NC(=O)OCC2c3ccccc3-c3ccccc32)C(=O)O)c(OC)c1 (stereo unspecified) ?
Given back: class 0

Asked: What did the test return for NCCC(=O)N[C@H](Cc1cc(O)c(O)c(SCC(NC(=O)CC[C@H](N)C(=O)O)C(=O)NCC(=O)O)c1)C(=O)O (stereo partly specified) ?
Given back: class 0

Asked: What did the test return for COc1ccc2c(c1)C(OC)C1c3c(cc4c(c3-2)OCO4)CCN1C (stereo unspecified) ?
Given back: class 0

Asked: What did the test return for `Cc1ccc2c(c1)C(=O)/C(=C1/CCc3ccc(C)cc31)C2` ?
Given back: class 0

Asked: What did the test return for CC(C)c1ccc2c(c1)C=C1OC(=O)[C@]3(C)CCC[C@@]2(C)C13 (stereo partly specified) ?
Given back: class 0

Asked: What did the test return for O=C1c2c(O)cccc2-c2nn(CCNCCO)c3ccc(NCCNCCO)c1c23 [LOSOXANTRONE HYDROCHLORIDE] ?
Given back: class 1

Asked: What did the test return for `O=C1/C(=C/c2ccc([N+](=O)[O-])cc2)CCCc2ccccc21` ?
Given back: class 0

Asked: What did the test return for `Cc1cc(Cl)ccc1NC(=O)/C(Cc1nc2ccc(C(=O)c3ccccc3)cc2nc1O)=N/NC(=O)c1ccncc1` ?
Given back: class 0

Asked: What did the test return for `Nn1c(Cc2ccc(Cl)cc2)n[nH]c1=O` ?
Given back: class 0

New cases:
Asked: What did the test return for `N#C/C(=C/NC(=S)NCc1ccccc1)C(N)=O` ?
Given back: class 0

----------
- Tested on: SK-MEL-5
- assay-protocol: NCI tumour cell line growth inhibition, 48 h
Calls of active or inactive are those of the source. Cut-off read from the data, not from the text of the source: active = GI50 up to about 1.1 µM and inactive = higher.
API: response.call in 1 (active), -1 (inactive)

Asked: What did the test return for `O=[N+]([O-])c1ccc(Cl)c(/C=N/C23CC4CC(CC(C4)C2)C3)c1` ?
Given back: -1

Asked: What did the test return for `Br[Se]c1ccccn1` ?
Given back: -1

Asked: What did the test return for CC1CCCP(=O)(c2ccccc2)CC1 (stereo unspecified) ?
Given back: -1

Asked: What did the test return for COc1ccccc1C1C2=C(COC2=O)Oc2cc3c(cc21)OCO3 (stereo unspecified) ?
Given back: -1

Asked: What did the test return for `Cc1cnc2nc(-c3ccc(F)cc3)cc(O)c2c1` ?
Given back: -1

Asked: What did the test return for `Nc1ccc2nc3ccc(N)cc3[n+](-c3ccccc3)c2c1` ?
Given back: -1

New cases:
Asked: What did the test return for C/C=C/c1cc(=O)c([C@@H]2OC(=O)c3cc(OC)cc(OC)c32)co1 [VERMISTATIN] ?
Given back: -1

Asked: What did the test return for `NC1=NC(=O)/C(=C/c2ccccc2[N+](=O)[O-])C(N)=N1` ?
Given back: -1

----------
- Test system: SK-MEL-2
- assay-protocol: NCI tumour cell line growth inhibition, 48 h
Calls of active or inactive are those of the source. Rule as the data show it: active = GI50 up to about 1.1 µM and inactive = higher.
experimental-readout: GI50

Asked: Any idea what GI50 was measured for CCOC(=O)C1C[C@H]2CO[C@H](c3ccccc3)N2C1=O (stereo partly drawn) ?
Given back: > 100 µM (inactive)

Asked: Any idea what GI50 was measured for `Cc1ccc(N2C(=O)/C(=C3\Sc4c(nc(C)n(C)c4=O)N3c3ccccc3)SC2=S)cc1` ?
Given back: > 100 µM (inactive)

Asked: Any idea what GI50 was measured for `COc1ccc2c(c1)[n+]([O-])c(C(=O)CC(=O)C(=O)Nc1cccc(C)c1C)c(C)[n+]2[O-]` ?
Given back: > 100 µM (inactive)

New cases:
Asked: Any idea what GI50 was measured for `COc1cc2c[n+](C)c3c(c2cc1OC)Cc1cc2c(cc1-3)OCO2` ?
Given back: > 100 µM (inactive)

Asked: Any idea what GI50 was measured for `Cc1ccc(NC(=O)/C=C/c2ccccc2)c(C)c1` ?
Given back: > 100 µM (inactive)

Asked: Any idea what GI50 was measured for COC(=O)C1=CC2C=CC(C1C(=O)OC)C1C(C(=O)OC)=C(C(=O)OC)C(C(=O)OC)=C(C(=O)OC)C21OC (stereo not drawn) ?
Given back: > 100 µM (inactive)

Asked: Any idea what GI50 was measured for `O=C(CSc1nc2ccc([N+](=O)[O-])cc2s1)c1ccc2ccccc2c1` ?
Given back: > 100 µM (inactive)

----------
// values below are reported GI50
- Tested on: MDA-N
- assay-protocol: NCI tumour cell line growth inhibition, 48 h
The source made the active and inactive calls. Cut-off read from the data, not from the text of the source: active = GI50 up to about 1.1 µM and inactive = higher.

Asked: Any idea what GI50 was measured for `Cc1ccc2nc(N/N=C/c3ccc(C)s3)cc(C)c2c1` ?
Given back: 7.8 µM (inactive)

Asked: Any idea what GI50 was measured for `Oc1ccc(O)c(CNc2ccccc2)c1` ?
Given back: 3.85 µM (inactive)

Asked: Any idea what GI50 was measured for `NNC(=O)CSc1nnc(CCCCCCCCc2nnc(SCC(=O)NN)o2)o1` ?
Given back: > 100 µM (inactive)

New cases:
Asked: Any idea what GI50 was measured for `O=C1CC(=O)c2c(N3CCCC3)sc(N3CCCC3)c21` ?
Given back: > 100 µM (inactive)

Asked: Any idea what GI50 was measured for `COc1cccc(-c2nc(O)c3ccccc3n2)c1` ?
Given back: 17.3 µM (inactive)

Asked: Any idea what GI50 was measured for `Clc1nc(Cl)c(CBr)c(Cl)n1` ?
Given back: 3.25 µM (inactive)

Asked: Any idea what GI50 was measured for `CS(=O)(=O)OCCN(CCOS(C)(=O)=O)c1ccc(/C=N/c2ccc(-c3csc(COc4ccccc4)n3)cc2)cc1` ?
Given back: 11 µM (inactive)

Asked: Any idea what GI50 was measured for COc1ccc2c(c1)C(OC)C1c3c(cc4c(c3-2)OCO4)CCN1C (stereo not drawn) ?
Given back: 2.86 µM (inactive)

----------
- Tested on: K562
- assay-protocol: NCI tumour cell line growth inhibition, 48 h
Calls of active or inactive are those of the source. Rule as the data show it: active = GI50 up to about 1.1 µM and inactive = higher.
API: response.call in active, inactive

Previously resolved entries follow.
Asked: What did the test return for `N#CCC(=O)Nn1c(CC#N)nnc1Cc1ccccc1` ?
Given back: inactive

Asked: What did the test return for `Cc1cccc2c1c1ccc3c(c1n2C)C(=O)C=CC3=O` ?
Given back: inactive

Asked: What did the test return for `COC(=O)C1=C(C(=O)OC)SC(=C(/N=N/c2ccccc2)c2ccccc2)S1` ?
Given back: inactive

Asked: What did the test return for COc1ccccc1C1C2=C(COC2=O)Oc2cc3c(cc21)OCO3 (stereo not given) ?
Given back: active

Asked: What did the test return for `COC1=CC(=O)c2c(c(-c3nc(C)cs3)cn2C)C1=O` ?
Given back: inactive

Asked: What did the test return for `Br[Se]c1ccccn1` ?
Given back: inactive

New cases:
Asked: What did the test return for CC1C2CC(CC(=O)N2)C1(C)C (stereo not given) ?
Given back: inactive

Asked: What did the test return for `[O-][Cl+3]([O-])([O-])O.c1ccc(C2=NN2c2ccccc2)cc1` ?
Given back: inactive

Asked: What did the test return for `O=C1c2cccc3cccc(c23)C(=O)N1CCN(CCO)CCO` ?
Given back: inactive

Asked: What did the test return for `N=c1oc2cc(O)ccc2cc1C(=O)Nc1ccccn1` ?
Given back: inactive

----------
// values below are reported GI50
- Test system: HT-29
- assay-protocol: NCI tumour cell line growth inhibition, 48 h
Activity calls are given as the source filed them. Cut-off read from the data, not from the text of the source: active = GI50 up to about 1.1 µM and inactive = higher.

Asked: Any idea what GI50 was measured for COC(=O)C1=CC2C=CC(C1C(=O)OC)C1C(C(=O)OC)=C(C(=O)OC)C(C(=O)OC)=C(C(=O)OC)C21OC (centres undefined) ?
Given back: > 100 µM (inactive)

Asked: Any idea what GI50 was measured for `Cc1ccc2nc(N/N=C/c3ccc(C)s3)cc(C)c2c1` ?
Given back: 3.51 µM (inactive)

Asked: Any idea what GI50 was measured for `COc1cc(/C=C(\C#N)C(N)=O)cc(Br)c1O` ?
Given back: > 100 µM (inactive)

New cases:
Asked: Any idea what GI50 was measured for `COC(=O)Cc1cc(=O)n2c([nH]c3ccccc32)c1C#N` ?
Given back: > 100 µM (inactive)

Asked: Any idea what GI50 was measured for `O=Cc1c2ccccc2n2ccc3c4ccccc4[nH]c3c12` ?
Given back: > 10 µM (inactive)

Asked: Any idea what GI50 was measured for `CC(C)(C)c1ccc(O)c(C[N+](C)(C)C)c1` ?
Given back: > 100 µM (inactive)

Asked: Any idea what GI50 was measured for CC(=O)OCC1OC(N2C(=S)N[C@H]([C@@H](O)[C@H](O)[C@H](O)CO)[C@H]2O)C(OC(C)=O)C(OC(C)=O)C1OC(C)=O (some centres undefined) ?
Given back: > 100 µM (inactive)

Asked: Any idea what GI50 was measured for `CC(=O)Oc1cc(Cl)c(C)c2c1[C@H]1CC[C@]3(C)[C@@H](OC(C)=O)CC[C@H]3[C@@H]1CC2` ?
Given back: 61.4 µM (inactive)
